Test: chemical genetic growth profiling, strain panel (AID 1159580);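 further: tested at 20 µM; growth read once vehicle control cultures reached saturation at 30 °C; 1 = growth at the plate median or of vehicle wells; lower values mean less growth of the strain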
Settings: S. cerevisiae deletion strains, growth OD, locus YPL241C, strain CIN2, active compounds read low
The campaign covered roughly 5,500 compounds. About 2,000 (36%) were called active. Another 18% or so got no clear call; they are omitted. This is one part of the list.
Metric: normalized growth
// no unit string in output, number only

Molecule: Cc1nc2c(OCc3ccccc3)cccn2c1CC#N
Val: 1

Molecule: O=C(N/N=C\c1ccccc1Cl)N/N=C\c1ccccc1Cl
Val: 0.707

Value of measured normalized growth for the entry "COc1cccc2c1cc([N+](=O)[O-])c1c(C(=O)O)cc3c(c12)OCO3" : 1.01

In plain terms, "CCCCCCCCCCCCCCCC[n+]1ccccc1" has a documented normalized growth of 0.0502

normalized growth reading for "CSc1ccc(C(=O)O)s1" : 0.906

Record CC(=O)C1COc2ccc(C)cc2C1=O (configuration not stated) , field normalized growth: 0.914

Short answer for "O=C(N/N=C\c1ccccc1Cl)c1cccnc1" : normalized growth was 0.996

Briefly, normalized growth measured for "NS(=O)(=O)c1cc2c(cc1C(F)(F)F)NCNS2(=O)=O" : 1.02

For record COc1cc([C@@H]2c3cc4c(cc3C(O[C@@H]3O[C@@H]5CO[C@@H](c6cccs6)OC5[C@H](O)[C@H]3O)C3COC(=O)[C@@H]32)OCO4)cc(OC)c1O (some centres not stated) the listed normalized growth is 1

Record summary for "Clc1ccc(-c2csc(-c3ccno3)n2)s1" : reported normalized growth = 0.81

Sample "NC(=O)CC[C@@H](N)C(=O)O" ; normalized growth observed: 1.01

Record summary for "COC(=O)C1=C(Nc2ccc(Cl)cc2)CSC1" : reported normalized growth = 0.742
